Overview of reported pKd across a group of binders:
Assayed Target: T1, Cynomolgus monkey serum albumin (Cynomolgus monkey, UniProt A2V9Z4 25-608)
T1 construct: also called CSA; cyno serum albumin
Assay Info: SPR (BIAcore), eight-point dilution kinetics
pKd: −log10 of the molar value.

{"columns": ["Binder", "pKd"],
 "data": [
  ["DOM7r-36-2 (VHH) VHH: EVQLLESGGGLVQPGGSLRLSCAASGFTFNHYTMGWVRQAPGKGREWVSLIHPSGTVTYYADSVKGRFTISRDNSKNTLYLQMNSLRAEDTAVYYCAKWSSRAFDYWGQGTLVTVSS", 6.74],
  ["DOM7r-201 (VHH) VHH: EVQLLESGGGLVQPGGSLRLSCAASGFTFNHYTMGWVRQAPGKGLEWVSLIHPSGTVIYYADSVKGRFTISRDNSKNTLYLQMNSLRAEDTAVYYCAKWSSRAFDYWGQGTLVTVSS", 7.24],
  ["DOM7r-36-8 (VHH) VHH: EVQLLESGGGLVQPGGSLRLSCAASGFTFNHYTMGWVRQAPGKGLEWVSLIHPSGTVIYYADSVKGRFTISRDNSKNTLYLQMNSLRAEDTAVYYCARWSSRAFDYWGQGTLVTVSS", 7.04],
  ["DOM7r-92-4 (VHH) VHH: EVQLLESGGGLVQPGGSLRLSCAASGFTFDTSSMLWVRQAPGKGLEWVSVIHQSGTPTYYADSVKGRFTISRDNSKNTLYLQMNSLRAEDTAVYYCAKFPSTHGKFDYWGQGTLVTVSS", 7.01],
  ["DOM7h-98-4 (VHH) VHH: EVQLLESGGGLVQPGGSLRLSCAASGFTFGNYAMAWVRQAPGKGLEWVSSIDMVGIKTYYADSVKGRFTNSRDNSKNTLYLQMNSLRAEDTAVYYCARGFRIFDYWGQGTLVTVSS", 5.44]
]}
